All figures here come from the Human Domainome abundance scans (Beltran et al. 2025).

B1: Zinc finger MYM-type protein 2, residues 463 to 506; numbered along this chain, Q9UBW7 (parent)
chain: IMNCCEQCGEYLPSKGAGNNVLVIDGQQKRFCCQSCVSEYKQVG

# Variants of: B1
# assayDetails: abundance fitness (aPCA) (normalised: wild type 0, dead -1); higher = more abundant; growth selection in yeast, the domain comes from the species named
# protocolConditions: Homo sapiens
assayReadout: abundance fitness

* Q34D | 0.013
* V43M | -0.218
* G44C | -0.157
* Q28P | -0.065
* L12E | -0.004
* E6Q | -0.116
* Y11P | 0.144
* D25S | -0.279
* A17L | -0.188
* K41D | 0.193
* N3F | -0.035
* F31V | -0.373
* Q27C | -0.084
* C36P | -0.168
* Y40I | -0.249
* E6W | -0.375
* L12Y | -0.444
* C8D | -0.77
* K15A | 0.089
* F31R | -0.366
* N3W | -0.402
* S35V | -0.092
